- testedSystem: human LPA1 receptor (Homo sapiens, UniProt Q92633)
- Construct: TEV protease site; Gal4-VP16 transcription factor
- Sequence (Q92633 whole entry, the tested form may be a part): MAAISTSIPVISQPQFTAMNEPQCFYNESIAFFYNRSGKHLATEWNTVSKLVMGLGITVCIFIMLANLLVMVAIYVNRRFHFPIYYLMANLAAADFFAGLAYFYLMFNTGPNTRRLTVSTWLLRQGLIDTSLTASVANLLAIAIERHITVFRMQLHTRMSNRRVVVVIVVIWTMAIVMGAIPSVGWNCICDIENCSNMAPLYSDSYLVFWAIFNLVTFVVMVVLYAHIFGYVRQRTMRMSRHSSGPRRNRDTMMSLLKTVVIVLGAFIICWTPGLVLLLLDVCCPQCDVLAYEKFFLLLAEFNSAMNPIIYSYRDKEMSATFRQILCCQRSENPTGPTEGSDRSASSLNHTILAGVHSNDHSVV
- assayDetails: Beta-arrestin recruitment assay to determine IC50 values for human LPAR1
- recordedConditions: Tango EDG2-bla U2OS cells, antagonist assay, LPA 18:1 500 nM final
parameter: IC50 (µM)
Answer with a number only, understood to be in µM.

Bench note: what IC50 did COc1cc(Cl)ncc1NC(=O)C1(c2ncccc2C(C)C)CN(S(N)(=O)=O)C1 show?
0.012

Bench note: what IC50 did COc1cc(Cl)ncc1NC(=O)C1(c2nc(F)ccc2C(C)C)CNC1 show?
0.419

Bench note: what IC50 did COC(=O)C(C)(C)CCN1CC(C(=O)Nc2cnc(Cl)cc2OC)(c2ccccc2C(C)C)C1 show?
0.111

Bench note: what IC50 did COc1cc(Cl)ncc1NC(=O)C1(c2ccccc2C(C)C)CN(CCCc2nnn[nH]2)C1 show?
0.347

###

- testedSystem: human LPA1 receptor (Homo sapiens)
- Construct: TEV protease site; Gal4-VP16 transcription factor
- assayDetails: Beta-arrestin recruitment assay to determine IC50 values for human LPAR1
- recordedConditions: Tango EDG2-bla U2OS cells, antagonist assay, LPA 18:1 500 nM final
Flag rule - IC50 less than 10 nM flags class 1; the remaining entries get class 0.

> print(dat)
                               smilesstring  assignedcategory
1  COc1cc(Cl)ncc1NC(=O)C1(c2ccccc2C(C)C)CN(C[C@@H](O)CO)C1           class 0
2  COC[C@H](C)Oc1cc(Cl)ncc1NC(=O)C1(c2ccccc2C(C)C)CN(C(=O)NC2CC2)C1           class 1
3  COc1cc(Cl)ncc1NC(=O)C1(c2ccccc2C(C)C)CN(c2cc(Cl)nc(C)n2)C1           class 0

Criterion: IC50 strictly below 10 nM. Is it met by COc1cc(F)ncc1NC(=O)C1(c2ccccc2C(C)C)CN(C(=O)CC(C)(C)C(=O)O)C1 ?
class 0

Criterion: IC50 strictly below 10 nM. Is it met by COC(=O)c1ccc(N2CC(C(=O)Nc3cnc(Cl)cc3OC)(c3ccccc3C(C)C)C2)nc1 ?
class 0

Criterion: IC50 strictly below 10 nM. Is it met by COc1cc(Cl)ncc1NC(=O)C1(c2ccccc2C(C)C)CCNCC1 ?
class 0

Criterion: IC50 strictly below 10 nM. Is it met by COc1cc(Cl)ncc1NC(=O)C1(c2ccccc2C(C)C)CCN(c2ncncc2F)CC1 ?
class 1

Criterion: IC50 strictly below 10 nM. Is it met by COc1cc(Cl)ncc1NC(=O)C1(c2ccccc2C(C)C)CN(c2ccncn2)C1 ?
class 1

###

- testedSystem: human LPA1 receptor (Homo sapiens)
- Construct: TEV protease site; Gal4-VP16 transcription factor
- assayDetails: Beta-arrestin recruitment assay to determine IC50 values for human LPAR1
- recordedConditions: Tango EDG2-bla U2OS cells, antagonist assay, LPA 18:1 500 nM final
- Experimental: Beta-Arrestin Recruitment Assay to Determine IC50 Values for Human LPAR1 The Tango™ EDG2-bla U2OS cells are obtained from Invitrogen. […] Upon LPA (agonist) binding, LPA1 receptor gets activated, leading to arrestin-protease recruitment and proteolytic release of the transcription factor: The transcription factor then regulates transcription of a beta-lactamase reporter construct, which is measured upon addition of the live-cell substrate. […]
parameter: pIC50
Value format note: pIC50 is -log10 of concentration (mol/L); just state the number.

Solved cases below.
> print(dat)
                               smilesstring                        testedsystem  parameter  resultnumber
1  COc1cc(Cl)ncc1NC(=O)C1(c2ccccc2C(C)C)CN(C2CCC2)C1  human LPA1 receptor (Homo sapiens)      pIC50          8.52
2  COC(=O)c1ccc(N2CC(C(=O)Nc3cnc(Cl)cc3OC)(c3ccccc3C(C)C)C2)nn1  human LPA1 receptor (Homo sapiens)      pIC50          7.62
3  COc1cc(Cl)ncc1NC(=O)C1(c2ccccc2C(C)C)CN(C(=O)C2COC2)C1  human LPA1 receptor (Homo sapiens)      pIC50          6.41

pIC50 of CCOC(=O)CCNC(=O)N1CC(C(=O)Nc2cnc(Cl)cc2OC)(c2ccccc2C(C)C)C1 on human LPA1 receptor (Homo sapiens)?
8.15

pIC50 of COC(=O)C(C)(C)CC(=O)N1CC(C(=O)Nc2cnc(Cl)cc2OC)(c2ccccc2C(C)C)C1 on human LPA1 receptor (Homo sapiens)?
7.37

pIC50 of COc1cc(Cl)ncc1NC(=O)C1(c2ccccc2C(C)C)CN(CC2(F)CC2)C1 on human LPA1 receptor (Homo sapiens)?
7.12

pIC50 of COc1cc(C(F)(F)F)ncc1NC(=O)C1(c2ccccc2C(C)C)CNC1 on human LPA1 receptor (Homo sapiens)?
5.92

pIC50 of CCOc1cc(Cl)ncc1NC(=O)C1(c2ccccc2C(C)C)CN(C(=O)CC(C)(C)C(=O)OC)C1 on human LPA1 receptor (Homo sapiens)?
7.14

pIC50 of COc1ccncc1NC(=O)C1(c2ccccc2C(C)C)CNC1 on human LPA1 receptor (Homo sapiens)?
7.13

pIC50 of CC(C)c1ccccc1C1(C(=O)Nc2cnc(Cl)cc2OC2CC2)CN(S(N)(=O)=O)C1 on human LPA1 receptor (Homo sapiens)?
8.22

pIC50 of COc1cc(Cl)ncc1NC(=O)C1(c2ccccc2C(C)C)CN(C2COC2)C1 on human LPA1 receptor (Homo sapiens)?
7.66

pIC50 of COc1cc(Cl)ncc1NC(=O)C1(c2ccccc2C(C)C)CN(C(=O)N(C)C)C1 on human LPA1 receptor (Homo sapiens)?
7.13

pIC50 of COc1cc(Cl)ncc1NC(=O)C1(c2ccccc2C(C)C)CN(CCN)C1 on human LPA1 receptor (Homo sapiens)?
7.36

pIC50 of COc1cc(Cl)ncc1NC(=O)C1(c2ccccc2C(C)C)CN(C(=O)NC2CC2)C1 on human LPA1 receptor (Homo sapiens)?
8.30

pIC50 of COc1cc(F)ncc1NC(=O)C1(c2ccccc2C(C)C)CNC1 on human LPA1 receptor (Homo sapiens)?
7.32

pIC50 of COc1cc(Cl)ncc1NC(=O)C1(c2ccccc2C(C)C)CCN(S(N)(=O)=O)CC1 on human LPA1 receptor (Homo sapiens)?
7.80

pIC50 of COc1cc(Cl)ncc1NC(=O)C1(c2ccccc2C(C)C)CN(c2nc(C)ncc2F)C1 on human LPA1 receptor (Homo sapiens)?
7.89

###

- testedSystem: human LPA1 receptor (Homo sapiens, UniProt Q92633)
- Construct: TEV protease site; Gal4-VP16 transcription factor
- assayDetails: Beta-arrestin recruitment assay to determine IC50 values for human LPAR1
- recordedConditions: Tango EDG2-bla U2OS cells, antagonist assay, LPA 18:1 500 nM final
parameter: pIC50
Value format note: pIC50 is -log10 of concentration (mol/L); just state the number.

Solved cases below.
> print(dat)
                               smilesstring  parameter  resultnumber
1  COCCOC(=O)N1CC(C(=O)Nc2cnc(Cl)cc2OC)(c2ccccc2C(C)C)C1      pIC50          7.16
2  COc1cc(Br)ncc1NC(=O)C1(c2ccccc2C(C)C)CN(CCC(C)(C)C(=O)O)C1      pIC50          7.25
3  COc1cc(Cl)ncc1NC(=O)C1(c2ccccc2C(C)C)CN(C2=NC(=O)CO2)C1      pIC50          7.92

Bench note: what pIC50 did COc1cc(Cl)ncc1NC(=O)C1(c2ccccc2C(C)C)CN(c2cc(C)ncn2)C1 show?
8.10

Bench note: what pIC50 did COc1cc(Cl)ncc1NC(=O)C1(c2ccccc2C(C)C)CN(C(C)C)C1 show?
8.05

Bench note: what pIC50 did CCOC(=O)C(C)(C)CCCN1CC(C(=O)Nc2cnc(Cl)cc2OCC)(c2ccccc2C(C)C)C1 show?
7.14

Bench note: what pIC50 did COc1cc(Cl)ncc1NC(=O)C1(c2cc(F)ccc2C(C)C)CN(S(N)(=O)=O)C1 show?
8.30

Bench note: what pIC50 did CC(C)c1ccccc1C1(C(=O)Nc2cnc(Cl)cc2OC2CC2)CNC1 show?
7.39

Bench note: what pIC50 did COc1cc(Cl)ncc1NC(=O)C1(c2ccccc2C(C)C)CN(C(=O)Cn2cc(C)nn2)C1 show?
7.37

Bench note: what pIC50 did COc1cc(Cl)ncc1NC(=O)C1(c2ccccc2C(C)C)CN(C(=O)CS(C)(=O)=O)C1 show?
7.27

Bench note: what pIC50 did COc1cc(C)ncc1NC(=O)C1(c2ccccc2C(C)C)CNC1 show?
7.44

Bench note: what pIC50 did COc1cc(Cl)ncc1NC(=O)C1(c2ccccc2C(C)C)CN(CC(C)C)C1 show?
7.46

Bench note: what pIC50 did COc1cc(C(F)(F)F)ncc1NC(=O)C1(c2ccccc2C(C)C)CN(S(N)(=O)=O)C1 show?
7.38

Bench note: what pIC50 did COc1cc(Cl)ncc1NC(=O)C1(c2ccccc2C(C)C)CN(C(=O)Cc2c[nH]nc2O)C1 show?
7.62

Bench note: what pIC50 did COc1cc(Cl)ncc1NC(=O)C1(c2nc(F)ccc2C(C)C)CN(S(N)(=O)=O)C1 show?
7.80

Bench note: what pIC50 did COc1cc(Cl)ncc1NC(=O)C1(c2ccccc2C(C)C)CN(Cc2cc[nH]n2)C1 show?
6.89

Bench note: what pIC50 did CCOC(=O)C(C)(C)CCCN1CC(C(=O)Nc2cnc(Cl)cc2OC)(c2ccccc2C(C)C)C1 show?
6.81

Bench note: what pIC50 did COc1cc(Cl)ncc1NC(=O)C1(c2ccccc2C(C)C)CN(S(=O)(=O)CCN(C)C)C1 show?
6.33

Bench note: what pIC50 did COCCNC(=O)N1CC(C(=O)Nc2cnc(Cl)cc2OC)(c2ccccc2C(C)C)C1 show?
7.82

Bench note: what pIC50 did COc1cc(Br)ncc1NC(=O)C1(c2ccccc2C(C)C)CN(C(=O)CC(C)(C)C(=O)O)C1 show?
7.68

Bench note: what pIC50 did COc1cc(Cl)ncc1NC(=O)C1(c2ccccc2C2CCCC2)CNC1 show?
8.52

Bench note: what pIC50 did COc1cc(Cl)ncc1NC(=O)C1(c2ccccc2C(C)C)CN(C(=O)CC(C)(C)C(=O)O)C1 show?
7.06
